// reported MIC per item
Tested on: Enterococcus faecium
Experimental Details: Antibacterial activity against Enterococcus faecium 7130724 by CLSI M07-A8 method
Type: functional

Would you please look over these solved cases?
1. CNC(=O)C[C@@H]1NC(=O)c2csc(n2)-c2ccc(-c3nc(-n4cnc(C(=O)O)c4)cs3)nc2-c2csc(n2)-c2csc(n2)[C@H]([C@@H](O)c2ccccc2)NC(=O)CNC(=O)c2nc(sc2COC)[C@H](C(C)C)NC(=O)c2nc1sc2C; > 32 µg/mL
2. CNC(=O)C[C@@H]1NC(=O)c2csc(n2)-c2ccc(-c3nc(NC(=O)CCCCP(=O)(O)O)cs3)nc2-c2csc(n2)-c2csc(n2)[C@H]([C@@H](O)c2ccccc2)NC(=O)CNC(=O)c2nc(sc2COC)[C@H](C(C)C)NC(=O)c2nc1sc2C; > 32 µg/mL

Now take the following compound into account.
Find the recorded MIC belonging to `CNC(=O)C[C@@H]1NC(=O)c2csc(n2)-c2ccc(-c3nc(NC(=O)CC[C@H](N)C(=O)O)cs3)nc2-c2csc(n2)-c2csc(n2)[C@H]([C@@H](O)c2ccccc2)NC(=O)CNC(=O)c2nc(sc2COC)[C@H](C(C)C)NC(=O)c2nc1sc2C` and report it.
> 32 µg/mL
